experiment: inhibition of 3D7 malaria parasite growth – strain 3D7 (AID 2306);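 further: 0% = DMSO wells and 100% = chloroquine plus artemisinin control wells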; conditions: P. falciparum 3D7 erythrocytic growth, LDH absorbance, 72 h; at 2 µM; hits give high values
Calls of active or inactive are those of the source. How the calls were made is not given here.
Recorded growth inhibition by entry

Brc1ccc(Nc2nc3ccccc3nc2Nc2ccc(Br)cc2)cc1 | 101% (active)
CC(C)CCN1C(=O)C(NC(=O)Oc2ccccc2)C(=O)N(CC23CC4CC(CC(C4)C2)C3)c2ccccc21 (centres undefined) | 95% (active)
CS(=O)(=O)CCNCc1cc(-c2cc3ncnc(Nc4ccc(OCc5cccc(F)c5)c(Cl)c4)c3s2)cs1 | 99% (active)

Now, please, on to the next molecule.
stdin: Given the molecule `Fc1ccc(CN2CCN(c3ncnc4cc(-c5ccccc5)sc34)CC2)cc1` , what is its reported growth inhibition?
stdout: 82% (active)
